# Tested on: MAP kinase-activated protein kinase 5 (Homo sapiens) (UniProt Q8IW41)
# Sequence (whole entry): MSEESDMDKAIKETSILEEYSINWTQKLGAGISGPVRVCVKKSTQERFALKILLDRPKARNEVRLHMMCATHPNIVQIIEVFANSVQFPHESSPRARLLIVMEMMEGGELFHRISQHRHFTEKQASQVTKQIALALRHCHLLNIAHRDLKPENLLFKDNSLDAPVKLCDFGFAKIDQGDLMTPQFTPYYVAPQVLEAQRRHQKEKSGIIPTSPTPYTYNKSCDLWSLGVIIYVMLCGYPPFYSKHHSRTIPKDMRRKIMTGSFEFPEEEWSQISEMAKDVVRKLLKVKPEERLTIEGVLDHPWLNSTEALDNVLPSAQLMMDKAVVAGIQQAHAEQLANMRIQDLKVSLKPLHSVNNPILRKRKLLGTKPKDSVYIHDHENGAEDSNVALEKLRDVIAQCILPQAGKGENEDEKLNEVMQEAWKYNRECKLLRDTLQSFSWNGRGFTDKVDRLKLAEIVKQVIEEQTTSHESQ
# Protocol: Inhibition of PRAK at 10 uM
Parameter measured: inhibition (%)

Worked examples, 2 compounds total:
INSERT INTO results (compound_structure_string, unit_info, readout_value) VALUES
  ('Cc1c(Nc2ccc(Br)cc2F)c(C(=O)NOCCO)cn(C)c1=O', '%', 16),
  ('CCONC(=O)c1cn(C)c(=O)c(C)c1Nc1ccc(Br)cc1F', '%', 18);

A = CONC(=O)c1cn(C)c(=O)c(C)c1Nc1ccc(Br)cc1F
B = CCONC(=O)c1cn(C)c(=O)c(F)c1Nc1ccc(Br)cc1F
-- ask Quick one: lower inhibition, A or B ? Refer to your chosen entry by its label in the reply.
-- reply A
(A: 9%, B: 18%)
